Origin of the recorded values: patent US20240383989A1

- system: T1, human KDR1 to 3 domain (human, UniProt P35968 20-327, limits assumed)
- T1 construct: domain: KDR1 to 3 domain; The panning antigen was KDR1 to 3 domain-Fc; Treated as one molecule; also called KDR1 to 3 domains; KDR D1 to D3
- T1 sequence (P35968 20-327 limits assumed): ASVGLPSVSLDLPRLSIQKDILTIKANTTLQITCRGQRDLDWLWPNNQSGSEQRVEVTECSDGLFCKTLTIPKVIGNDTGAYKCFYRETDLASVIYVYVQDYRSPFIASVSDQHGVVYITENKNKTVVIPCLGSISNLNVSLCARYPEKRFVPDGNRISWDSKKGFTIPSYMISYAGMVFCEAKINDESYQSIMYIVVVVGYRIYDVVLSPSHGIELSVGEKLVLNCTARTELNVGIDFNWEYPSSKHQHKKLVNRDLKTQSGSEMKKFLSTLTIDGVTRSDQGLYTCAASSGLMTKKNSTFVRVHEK
- assay_procedure: BLI (Octet), antibody on biosensor, human KDR1 to 3 as analyte
- Protocol: The binding of the selected antibodies to the KDR1 to 3 domain was measured using the Octet system (Fortebio Inc. US).

[
  {
    "binder": "A5 (IgG) (antibody, V domains shown, Converted to IgG with the pfusess-hchg1 (human IgG1) and pfuse2ss-hclk (human kappa) vectors) VH: EVQLVESGGGLVQPGGSLRLSCAASGYTFSSYWMSWVRQAPGKGLEWVSEINPGNGHTNYNEKFKSRFTISRDKSKNTLYLQMNSLRAEDTAVYYCARHWGPSLTSPFDYWGQGTLVTVSS VL: DIQMTQSPSSLSASVGDRVTITCRADNLGDVNVHWYQQKPGKAPKLLIYYDADRPSGVPSRFSGSNSGNDATLTISSLQPEDFATYYCQAPTTHLPYTFGQGTKVEIKR",
    "output_unit": "nM",
    "Kd": 0.886
  }
]
